- Target Entity: wild-type (WT) P450 BM3 heme domain (Priestia megaterium, UniProt P14779)
- Sequence (P14779 1-464 limits assumed): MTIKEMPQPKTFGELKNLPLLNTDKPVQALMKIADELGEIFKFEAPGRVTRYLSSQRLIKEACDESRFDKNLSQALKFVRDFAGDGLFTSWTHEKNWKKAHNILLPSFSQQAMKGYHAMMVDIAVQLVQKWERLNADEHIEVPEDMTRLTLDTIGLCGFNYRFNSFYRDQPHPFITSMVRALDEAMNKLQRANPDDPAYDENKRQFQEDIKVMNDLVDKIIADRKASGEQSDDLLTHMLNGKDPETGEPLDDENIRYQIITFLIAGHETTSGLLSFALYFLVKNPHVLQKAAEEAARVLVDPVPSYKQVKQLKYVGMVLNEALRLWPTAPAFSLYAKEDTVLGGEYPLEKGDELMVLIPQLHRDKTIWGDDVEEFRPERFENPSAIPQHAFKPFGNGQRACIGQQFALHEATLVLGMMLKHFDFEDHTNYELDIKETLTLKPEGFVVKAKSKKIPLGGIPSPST
Measurement Name: Kd (µM)
Numeric answer only, unit µM assumed.

Measured Kd of CCCCCCCCCCCC(=O)O : 280
